Item-by-item account of Vd
# Test Name: clinical
# Experimental Context: human, in vivo, iv, Vdss
Property Measured: Vd (L/kg)

> print(dat)
                           smiles.structure  property.measured  test.result
1                 Cc1ncc([N+](=O)[O-])n1CCO                 Vd          0.4
2                Cn1c(=O)c2c(ncn2C)n(C)c1=O                 Vd         0.63
3           CCN[C@@H](C)Cc1cccc(C(F)(F)F)c1                 Vd           11
4  CCCCCc1cc(O)c2c(c1)OC(C)(C)[C@@H]1CCC(C)=C[C@@H]21                 Vd          8.9

====

# Test Name: clinical
# Experimental Context: human, in vivo, iv
Property Measured: MRT (h)

> print(dat)
                                   compound  test.result
1  C#C[C@]1(O)C=C[C@H]2[C@@H]3CCC4=CC(=O)CC[C@@H]4[C@H]3CC[C@@]21CC [GESTODENE]          9.6
2              Cc1ncsc1CCCl [CLOMETHIAZOLE]          3.3
3  C[C@@H](CN1CC(=O)NC(=O)C1)N1CC(=O)NC(=O)C1 [DEXRAZOXANE]            3

====

# Test Name: clinical
# Experimental Context: human, in vivo, iv
Property Measured: fraction unbound

> print(dat)
                                    compound  test.result
 1  CCCC(C)C1(CC)C(=O)NC(=S)NC1=O (stereo not given)         0.14
 2  NS(=O)(=O)c1cc(C(=O)O)cc(N2CCCC2)c1Oc1ccccc1 [PIRETANIDE]        0.058
 3  COc1ccc(Cl)cc1C(=O)NCCc1ccc(S(=O)(=O)NC(=O)NC2CCCCC2)cc1 [GLYBURIDE]        0.021
 4  CN(C)CCc1c[nH]c2ccc(CS(=O)(=O)N3CCCC3)cc12          0.6
 5            CCCn1c(=O)[nH]c(=O)c2[nH]cnc21         0.55
 6  Cc1ccccc1OCC(O)CNCCOc1ccc(C(N)=O)cc1 (stereo not given)        0.089
 7  CC[C@@]1(O)C(=O)OCc2c1cc1n(c2=O)Cc2cc3c(N)cccc3nc2-1        0.003
 8                      O=NN(CCCl)C(=O)NCCCl         0.23
 9  C[C@@H](c1ncncc1F)[C@](O)(Cn1cncn1)c1ccc(F)cc1F         0.42
10  CO[C@@]1(NC(=O)CSCC#N)C(=O)N2C(C(=O)O)=C(CSc3nnnn3C)CS[C@@H]21         0.15
11       CSc1ccc(C(=O)c2[nH]c(=O)[nH]c2C)cc1          0.3
12  Cc1onc(-c2ccccc2)c1C(=O)N[C@@H]1C(=O)N2[C@@H]1SC(C)(C)[C@@H]2C(=O)O         0.07
13  CCN(CC)CCNC(=O)c1ccc(NC(C)=O)cc1 [ACECAINIDE]          0.9
14        O.O=P(O)(O)C(O)(Cn1ccnc1)P(=O)(O)O         0.78
15         CCCN1CCCC[C@H]1C(=O)Nc1c(C)cccc1C         0.06

These entries and their values trace back to ChEMBL document CHEMBL1614632.
